measured-target: FGFR3 (UniProt P22607)
Sequence (P22607 whole entry, looked up): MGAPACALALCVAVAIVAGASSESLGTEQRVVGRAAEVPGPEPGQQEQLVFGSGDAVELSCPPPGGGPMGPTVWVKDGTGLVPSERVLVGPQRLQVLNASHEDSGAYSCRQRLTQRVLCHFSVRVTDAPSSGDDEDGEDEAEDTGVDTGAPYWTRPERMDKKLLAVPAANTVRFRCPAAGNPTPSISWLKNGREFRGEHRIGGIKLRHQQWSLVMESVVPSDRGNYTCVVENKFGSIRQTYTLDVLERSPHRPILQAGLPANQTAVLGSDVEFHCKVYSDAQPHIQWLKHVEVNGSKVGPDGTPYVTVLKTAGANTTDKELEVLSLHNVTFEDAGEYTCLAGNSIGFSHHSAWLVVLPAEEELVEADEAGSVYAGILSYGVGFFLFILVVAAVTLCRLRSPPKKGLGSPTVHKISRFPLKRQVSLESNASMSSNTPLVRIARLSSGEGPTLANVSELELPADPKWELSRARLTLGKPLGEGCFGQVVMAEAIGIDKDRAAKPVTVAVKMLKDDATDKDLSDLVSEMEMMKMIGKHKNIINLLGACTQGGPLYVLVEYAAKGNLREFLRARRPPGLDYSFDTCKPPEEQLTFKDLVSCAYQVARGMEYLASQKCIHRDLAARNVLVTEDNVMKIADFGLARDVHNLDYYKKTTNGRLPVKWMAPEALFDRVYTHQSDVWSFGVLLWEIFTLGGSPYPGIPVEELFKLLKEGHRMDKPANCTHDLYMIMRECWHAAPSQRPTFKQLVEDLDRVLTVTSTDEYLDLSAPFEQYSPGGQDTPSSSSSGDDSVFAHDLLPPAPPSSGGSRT
measurement-protocol: phosphorylation enrichment, bacterial display (enrichment ratio); higher = better substrate or ligand; peptides without Tyr show the background
measurement-type: phosphorylation enrichment
Answer with a bare number; do not write a unit.

stdin: Entry KNKNRCKNILP [PTPN11_Y279_Y279C] : reported phosphorylation enrichment = ?
stdout: 0.959

stdin: Entry PRDSGYSYETI [MAP1B_Y1921_S1917R] : reported phosphorylation enrichment = ?
stdout: 0.898

stdin: Entry NFCPGYNNFFN [USH2A_Y467_R464C_YF] : reported phosphorylation enrichment = ?
stdout: 0.524

stdin: Entry TEALYYTDDPA [ADPRS_Y75_T79P] : reported phosphorylation enrichment = ?
stdout: 5.62

stdin: Entry HAVFIYDICHV [TWNK_Y508_V507I_YF] : reported phosphorylation enrichment = ?
stdout: 0.956

stdin: Entry GHEYIYVDRMQ [PDGFRB_Y581_P584R] : reported phosphorylation enrichment = ?
stdout: 3.24

stdin: Entry GAPATYEGDAR [CACNA1A_Y1013] : reported phosphorylation enrichment = ?
stdout: 0.51

stdin: Entry SSDKVYAHQMV [MLH1_Y379] : reported phosphorylation enrichment = ?
stdout: 0.416

stdin: Entry RPQDGYRIVQH [PTPRT_Y1329] : reported phosphorylation enrichment = ?
stdout: 0.625

stdin: Entry SNNYIYKTLGV [FAM83B_Y639] : reported phosphorylation enrichment = ?
stdout: 0.546

stdin: Entry TIMTNYNPNYC [ALK_Y1092_D1091N] : reported phosphorylation enrichment = ?
stdout: 0.549

stdin: Entry PQGVRYTFTID [DCX_Y103_I104T_YF] : reported phosphorylation enrichment = ?
stdout: 1.36

stdin: Entry SLQAHYDTPRS [DOK7_Y405_R402Q] : reported phosphorylation enrichment = ?
stdout: 0.38

stdin: Entry GDKENYGLPQP [BUB1_Y538_N534D] : reported phosphorylation enrichment = ?
stdout: 0.567

stdin: Entry SENAFYLSPDI [COL6A3_Y2827] : reported phosphorylation enrichment = ?
stdout: 0.841

stdin: Entry LNPLFYSLRNK [OR5R1_Y290_I289F] : reported phosphorylation enrichment = ?
stdout: 0.737

stdin: Entry GHMFAYDWISI [BEST1_Y227_L224M_YF] : reported phosphorylation enrichment = ?
stdout: 2.15

stdin: Entry RDSQLYAVDFE [MRPS34_Y34_YF] : reported phosphorylation enrichment = ?
stdout: 0.788

stdin: Entry GGFNNYGFGND [HNRNPH3_Y159_YF] : reported phosphorylation enrichment = ?
stdout: 0.611

stdin: Entry MGGSVYFSYPD [HIKESHI_Y55] : reported phosphorylation enrichment = ?
stdout: 1.41

stdin: Entry GTPVMYTYDEY [COL10A1_Y623] : reported phosphorylation enrichment = ?
stdout: 0.893

stdin: Entry LSDGPYSNSFE [EPOR_Y485_P488S_YF] : reported phosphorylation enrichment = ?
stdout: 0.976

stdin: Entry DSKIRYLSADS [TTF1_Y476_E473K] : reported phosphorylation enrichment = ?
stdout: 0.546

stdin: Entry FHRQLYHKCTH [F12_Y58_YF] : reported phosphorylation enrichment = ?
stdout: 0.442

stdin: Entry RNDLDYMDSRR [GAA_Y407_W402R] : reported phosphorylation enrichment = ?
stdout: 0.645

stdin: Entry VLTSKYCGGGG [HBA1_Y141_R142C] : reported phosphorylation enrichment = ?
stdout: 0.577

stdin: Entry IFLADYRIMEG [ALOX12B_Y318_YF] : reported phosphorylation enrichment = ?
stdout: 0.787

stdin: Entry FQLPFYNMVPS [BMPR1A_Y458_YF] : reported phosphorylation enrichment = ?
stdout: 0.936

stdin: Entry WQQQSYLFSGI [CTNNB1_Y30_D32Y_YF] : reported phosphorylation enrichment = ?
stdout: 0.57

stdin: Entry GISDEYHVIRH [GCDH_Y398] : reported phosphorylation enrichment = ?
stdout: 2.26

stdin: Entry EFKKHYGFSLF [ANXA3_Y295_YF] : reported phosphorylation enrichment = ?
stdout: 0.721

stdin: Entry RESSGYLRLAF [MEP1A_Y481] : reported phosphorylation enrichment = ?
stdout: 1.25

stdin: Entry SMAKFYASGIA [ACADSB_Y373_E376G_YF] : reported phosphorylation enrichment = ?
stdout: 0.561

stdin: Entry GPSTPYTKSKR [SMARCC2_Y324] : reported phosphorylation enrichment = ?
stdout: 0.362

stdin: Entry MFQVQYNSSVD [LRFN1_Y458_YF] : reported phosphorylation enrichment = ?
stdout: 0.581

stdin: Entry LVVFEYMRHGD [NTRK1_Y591_M587V] : reported phosphorylation enrichment = ?
stdout: 0.625

stdin: Entry RGDCMYAPLLG [AR_Y269] : reported phosphorylation enrichment = ?
stdout: 1.83

stdin: Entry EFISENCGEII [EZH2_Y641_Y641N] : reported phosphorylation enrichment = ?
stdout: 0.706

stdin: Entry WEQELYSQLVY [WAS_Y102] : reported phosphorylation enrichment = ?
stdout: 7.23

stdin: Entry AVPSLYASGRT [ACTA1_Y145_L142P] : reported phosphorylation enrichment = ?
stdout: 0.434

stdin: Entry SLEKSYKLPDG [ACTA1_Y242_E243K] : reported phosphorylation enrichment = ?
stdout: 0.455

stdin: Entry QSKGIYYVQLE [MGAT4B_Y262] : reported phosphorylation enrichment = ?
stdout: 3

stdin: Entry HSGIFYKPESL [L2HGDH_Y103_YF] : reported phosphorylation enrichment = ?
stdout: 0.934

stdin: Entry LLARLYRGQAL [FGFR4_Y390_G388R] : reported phosphorylation enrichment = ?
stdout: 0.592

stdin: Entry PESIPYRKFTT [NTRK1_Y701_L700P] : reported phosphorylation enrichment = ?
stdout: 0.936

stdin: Entry LPKEQYLYTKE [AFG3L2_Y614] : reported phosphorylation enrichment = ?
stdout: 0.998

stdin: Entry NTDETYSIDNE [TUBB2B_Y200_C201S] : reported phosphorylation enrichment = ?
stdout: 0.715

stdin: Entry TKGMIYGGGGG [PSME1_Y249] : reported phosphorylation enrichment = ?
stdout: 0.377

stdin: Entry QMIETYFDFRL [NSMF_Y506] : reported phosphorylation enrichment = ?
stdout: 5.67

stdin: Entry VECRVYAEDPF [PCCA_Y401_YF] : reported phosphorylation enrichment = ?
stdout: 0.845

stdin: Entry HNQDGYSFLSR [LDLR_Y845_P848L_YF] : reported phosphorylation enrichment = ?
stdout: 0.657

* * *

measured-target: c-Src SH2
measurement-protocol: SH2 binding enrichment of the phosphorylated peptide, bacterial display (enrichment ratio); higher = better substrate or ligand; peptides without Tyr show the background
Hi, to clarify the labels: true (1) covers SH2 binding enrichment from 0.5 upward, false (0) covers anything below 0.5.

stdin: Determine whether this sequence has SH2 binding enrichment no lower than 0.5: SLEKSYKLPDG [ACTA1_Y242_E243K]
stdout: false (0)

stdin: Determine whether this sequence has SH2 binding enrichment no lower than 0.5: PTEAQYRFIFM [PTPN11_Y511_Q506P_YF]
stdout: false (0)

stdin: Determine whether this sequence has SH2 binding enrichment no lower than 0.5: GGMTEYELVVV [KRAS_Y4_K5E]
stdout: true (1)

stdin: Determine whether this sequence has SH2 binding enrichment no lower than 0.5: RNVLVYDKLNV [ROR2_Y624]
stdout: true (1)

stdin: Determine whether this sequence has SH2 binding enrichment no lower than 0.5: AQMAMYFWEMG [TRPM4_Y577]
stdout: true (1)

stdin: Determine whether this sequence has SH2 binding enrichment no lower than 0.5: GMKIVYVFVKK [DNAI2_Y5_E2K_YF]
stdout: true (1)

stdin: Determine whether this sequence has SH2 binding enrichment no lower than 0.5: EREFKYGAHNF [OAT_Y50_YF]
stdout: false (0)

stdin: Determine whether this sequence has SH2 binding enrichment no lower than 0.5: GEETDYTPVWC [UROD_Y30]
stdout: true (1)

stdin: Determine whether this sequence has SH2 binding enrichment no lower than 0.5: RIPFRYPKEFQ [IDS_Y234_H229R]
stdout: false (0)

* * *

measured-target: Grb2 SH2 (UniProt P62993)
Sequence (P62993 whole entry, looked up): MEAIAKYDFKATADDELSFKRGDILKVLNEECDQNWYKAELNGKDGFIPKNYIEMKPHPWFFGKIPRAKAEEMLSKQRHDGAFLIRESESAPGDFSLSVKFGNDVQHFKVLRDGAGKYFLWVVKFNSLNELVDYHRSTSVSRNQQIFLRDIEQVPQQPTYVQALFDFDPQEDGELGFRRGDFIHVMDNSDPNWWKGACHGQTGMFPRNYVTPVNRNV
measurement-protocol: SH2 binding enrichment of the phosphorylated peptide, bacterial display (enrichment ratio); higher = better substrate or ligand; peptides without Tyr show the background
measurement-type: SH2 binding enrichment
Answer with a bare number; do not write a unit.

stdin: Give Grb2 SH2 (UniProt P62993) SH2 binding enrichment for GRVLGYGTFGK [FLT4_Y853_A855T]
stdout: 1.01

stdin: Give Grb2 SH2 (UniProt P62993) SH2 binding enrichment for KGSLPYNLILD [PKD1L2_Y406]
stdout: 0.75

stdin: Give Grb2 SH2 (UniProt P62993) SH2 binding enrichment for AKGMKYVASKK [MET_Y1194_L1195V]
stdout: 0.969

stdin: Give Grb2 SH2 (UniProt P62993) SH2 binding enrichment for YSDPSYVKQME [CDC5L_Y464]
stdout: 0.8
